System: XIP peptide (Xip251-270)
EXPERIMENTAL_DETAILS: compounds binding XIP fragment 251-270 – biochemical, small-molecule microarray, fluorescence 635/667 nm, 0.5 µg/mL protein, primary screen (AID 1183)
COND: fluorescence 635 nm, higher = more signal
Kind request: treat 0.7 as inclusive, so composite z-score at 0.7 or higher is satisfied, anything lower is not satisfied.

Solved entries:
[[record]]
compound = "NCCCCCNC(=O)[C@@H]1C[C@@H]2C(=O)N[C@@H](CCCCN)C(=O)N2[C@@H]1c1ccc(O)cc1"
category_label = "satisfied"

[[record]]
compound = "COc1ccc([Si](C)(C)[C@@H]2[C@@H](CCO)O[C@]3(C(=O)N(Cc4cccc(NC(=O)[C@H](C)O)c4)c4ccccc43)[C@H]2C)cc1"
category_label = "satisfied"

[[record]]
compound = "COC(=O)[C@@]1(Cc2ccc(OC)cc2)[C@H]2c3cc(C(=O)N(C)C)n(Cc4ccc(OC(F)(F)F)cc4)c3C[C@H]2CN1C(=O)c1ccccc1"
category_label = "not satisfied"

[[record]]
compound = "NC(=O)NCC#Cc1ccc2c(c1)[C@]1(C(=O)N2)[C@H](C(=O)N2CCN(c3ncccn3)CC2)[C@H]2C(=O)O[C@H](c3ccccc3)[C@H](c3ccccc3)N2[C@@H]1c1ccc(O)cc1"
category_label = "not satisfied"

[[record]]
compound = "O=C(C1N=C(c2ccc(OCCCO)cc2)N(c2ccccc2)O1)N1CCCCC1 (stereo not drawn)"
category_label = "satisfied"


Does the reported composite z-score for C=CCNC(=O)[C@@H]1[C@H]2C(=O)O[C@H](c3ccccc3)[C@H](c3ccccc3)N2[C@H](c2ccc(O)cc2)[C@@]12C(=O)N(C(=O)OCCOC)c1ccc(C#CC3=CCCCC3)cc12 fall at or above the 0.7 mark?
not satisfied

Does the reported composite z-score for CC1CC/C=C\[C@H]2OC34C=CCN(C(C)C)C(=O)[C@H]3N(CCO)C(=O)[C@@H]4C2C(=O)O1 (stereo partly drawn) fall at or above the 0.7 mark?
not satisfied

Does the reported composite z-score for C=CCN1C(=O)[C@]2(CCC(=O)OC(C)(C)C)N=C(c3ccc(OCCCO)cc3)O[C@@H]2c2ccccc21 fall at or above the 0.7 mark?
not satisfied

Does the reported composite z-score for NC(=O)NCC#Cc1ccc2c(c1)[C@]1(C(=O)N2)[C@H](c2ccccc2OCCO)N2[C@H](c3ccccc3)[C@H](c3ccccc3)OC(=O)[C@H]2[C@@H]1C(=O)O fall at or above the 0.7 mark?
not satisfied

---

EXPERIMENTAL_DETAILS: FRG1 expression reporter modulators in myotubes – cell-based, C2C12 myotubes, firefly/Renilla luciferase, luminescence, FRG1 inhibition for FSHD, primary screen (AID 1084)
COND: FRG1 promoter luciferase, higher = more signal, called active from +8 up or from −8 down
# z-score annotations
No unit in the answer, only the number.

Consider the worked cases shown below.
[[record]]
compound = "Cc1ccc(S[C@]2(C(=O)NCC(F)(F)F)CC(=O)N(Cc3cc(C(F)(F)F)cc(C(F)(F)F)c3)[C@@H]2c2ccc(CO)cc2I)cc1"
readout_name = "z-score"
measured_number = -0.326

[[record]]
compound = "COc1ccc(CCNC(=O)[C@@]2(c3ccc([N+](=O)[O-])cc3)CC(=O)N(C3CCCCC3)[C@@H]2c2ccc(CO)cc2)cc1"
readout_name = "z-score"
measured_number = -0.517

[[record]]
compound = "CC(C)[Si](C#CCCCC#N)(O[C@H](c1ccccc1)c1cn(Cc2ccccc2)nn1)C(C)C"
readout_name = "z-score"
measured_number = -2.06

[[record]]
compound = "CC(C)c1ccc(NN2C(C(O)c3ccc(F)cc3)C=CC3C(=O)N(c4ccccc4)C(=O)C32)cc1 (configuration not stated)"
readout_name = "z-score"
measured_number = -0.38

[[record]]
compound = "CN1C(=O)C2C=CC(C(O)c3cccn3C)N(Nc3ccc([N+](=O)[O-])cc3[N+](=O)[O-])C2C1=O (configuration not stated)"
readout_name = "z-score"
measured_number = 0.351


Please report the measured z-score for COc1ccc([Si](C)(C)[C@H]2[C@H](CC(=O)N3Cc4ccccc4C[C@H]3CO)O[C@@]3(C(=O)N(Cc4ccc(N5CCOC5=O)cc4)c4ccccc43)[C@@H]2C)cc1
-4.08

Please report the measured z-score for [N-]=[N+]=Nc1ccccc1C[C@@]1(C(=O)NCCN2CCOCC2)N=C(c2ccc(OCCCO)cc2)O[C@@H]1c1ccccc1N=[N+]=[N-]
-2.04

---

EXPERIMENTAL_DETAILS: ATP-based viability of Huh7 replicon cells – cell-based, CellTiter-Glo luminescence, basal, 48 h, cytotoxicity control for HCV replication inhibitor project, primary screen (AID 1143);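 further: Huh7 hepatoma cells carrying a hepatitis C replication reporter with no stimulus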
COND: higher = more signal, called active from +8 up or from −8 down
READOUT_NAME: z-score
No unit in the answer, only the number.

[[record]]
compound = "CCCN1C(=O)[C@]2(Cc3ccccc31)N=C(c1ccc(OCCCO)cc1)O[C@@H]2c1ccccc1"
readout_name = "z-score"
measured_number = -5.07

[[record]]
compound = "COc1cc2c(cc1O)C(c1cccs1)N(Cc1cc3c(cc1Br)OCO3)CC2 (configuration not stated)"
readout_name = "z-score"
measured_number = -4.04

[[record]]
compound = "CC(C)NC(=O)[C@@]1(c2ccc([N+](=O)[O-])cc2)CC(=O)N(C2CCCCC2)[C@@H]1c1ccc(CO)cc1"
readout_name = "z-score"
measured_number = -2.26


Please report the measured z-score for CC#CCO[Si](C#Cc1ccccc1)(C(C)C)C(C)C
-1.35

Please report the measured z-score for COCCOC(=O)N1C(=O)[C@@]2(c3cc(C#CCC(C(=O)OC)C(=O)OC)ccc31)[C@H](c1ccc(OCCO)cc1)N1[C@H](c3ccccc3)[C@H](c3ccccc3)OC(=O)[C@H]1[C@@H]2C(=O)N1CCc2cc(OC)c(OC)cc2C1
-1.35

Please report the measured z-score for CCC1=C2CN(Cc3ccccc3)[C@@H](C(=O)Cc3ccccc3)C2C=CCC1 (some centres not stated)
-3.57

Please report the measured z-score for COc1ccc([Si](C)(C)[C@@H]2[C@@H](CCO)O[C@]3(C(=O)N(Cc4ccccc4)c4ccc(NC(=O)[C@H](C)O)cc43)[C@H]2C)cc1
-7.95

---

Test system: Plasmodium falciparum Sir2 (PF13_0152, Sir2A)
EXPERIMENTAL_DETAILS: Plasmodium falciparum Sir2A binding compounds – biochemical, small-molecule microarray, 635 nm fluorescence, primary screen (AID 1098);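 further: score merges spot fluorescence intensity with its signal-to-noise ratio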
COND: fluorescence 635 nm, higher = more signal
Kind request: treat 1 as inclusive, so composite z-score at 1 or higher is true, anything lower is false.

Does the reported composite z-score for O=C(c1ccccc1)N1C(=O)[C@]2(Cc3ccccc31)N=C(c1ccc(OCCCO)cc1)O[C@@H]2c1ccccc1 fall at or above the 1 mark?
true

Does the reported composite z-score for COC(=O)C1(CC(C)C)C=C2C(=C(c3ccccc3)C(=O)C2C)CN1 (stereo not drawn) fall at or above the 1 mark?
false

---

EXPERIMENTAL_DETAILS: FRG1 expression reporter modulators in myotubes – cell-based, C2C12 myotubes, firefly/Renilla luciferase, luminescence, FRG1 inhibition for FSHD, primary screen (AID 1084)
COND: FRG1 promoter luciferase, higher = more signal, called active from +8 up or from −8 down
Kind request: treat 0.8 as inclusive, so z-score at 0.8 or higher is class 1, anything lower is class 0.

Solved entries:
[[record]]
molecule = "CCCNC(=O)[C@@]1(Sc2ccc(C)cc2)CC(=O)N(C2Cc3ccccc3C2)[C@@H]1c1ccc(CO)cc1I"
category_label = "class 0"

[[record]]
molecule = "CC(C)=C1C(=O)C(c2ccccc2)=C2CN3C(=O)N(CCc4ccccc4)C(=O)[C@]3(Cc3ccc(C(F)(F)F)cc3)[C@H]21"
category_label = "class 1"

[[record]]
molecule = "CCOC(=O)C1=C[C@@H](c2ccccc2)N(S(=O)(=O)c2ccc(C)cc2)[C@H]1c1ccc(OC)cc1"
category_label = "class 0"


Does the reported z-score for O=C1N(Cc2ccccc2)c2ccccc2C[C@]12N=C(c1ccc(OCCCO)cc1)O[C@@H]2c1ccccc1 fall at or above the 0.8 mark?
class 0

Does the reported z-score for CO[C@H]1O[C@H](CO)[C@@H](OC(=O)CCc2ccccc2)[C@@H]2OC(=O)[C@@H](Cc3ccccc3)C/C=C/C[C@H](Cc3ccccc3)C(=O)O[C@@H]12 fall at or above the 0.8 mark?
class 0

---

EXPERIMENTAL_DETAILS: S. pombe growth modifiers, basal conditions – strain 972, OD600, 24 h, no modulator, primary screen (AID 1090);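 further: basal condition with compound alone and no growth modifier present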
COND: S. pombe 972 growth, called active from +8 up or from −8 down
Activity calls are given as the source filed them.
Output constraint: value belongs to active, inactive

Solved entries:
[[record]]
compound = "C=CC[C@@H](OC(=O)Nc1ccc(OC)cc1)c1ccc(O)c(F)c1"
category_label = "active"

[[record]]
compound = "C=CCOC(=O)[C@@H]1[C@H]2C(=O)O[C@H](c3ccccc3)[C@H](c3ccccc3)N2[C@H](c2ccc(OCCOC(=O)[C@@H]3C[C@@H]4C(=O)N[C@@H](CCCC[N+](C)(C)C)C(=O)N4[C@@H]3c3ccc(O)cc3)cc2)[C@@]12C(=O)Nc1ccc(I)cc12"
category_label = "inactive"

[[record]]
compound = "COCCOC(=O)N1C(=O)[C@@]2(c3ccccc31)[C@H](c1ccc(O)cc1)N1[C@H](c3ccccc3)[C@H](c3ccccc3)OC(=O)[C@H]1[C@@H]2C(=O)N1CCN(c2ncccn2)CC1"
category_label = "inactive"

[[record]]
compound = "COC(=O)[C@@]1(Cc2ccc(OC)cc2)[C@H]2c3cc(C(=O)N4CCCC4)n(CCc4c[nH]c5ccc(OC)cc45)c3C[C@H]2CN1C(=O)c1ccccc1"
category_label = "inactive"

[[record]]
compound = "CCCCCCCCCC(O)C1C=CC2C(=O)N(c3ccccc3)C(=O)C2N1Nc1cc(OC)c(OC)c(OC)c1 (stereo not given)"
category_label = "inactive"


Entry Cc1cc(C)c(C(O)C2C=CC3C(=O)N(c4ccccc4)C(=O)C3N2Nc2ccccc2F)c(C)c1 (stereo not given) : call = ?
inactive

Entry CO[C@H]1O[C@H](CO)[C@@H](OC(=O)CCc2ccccc2)[C@@H]2OC(=O)[C@@H](Cc3ccccc3)C/C=C/C[C@H](Cc3ccccc3)C(=O)O[C@@H]12 : call = ?
inactive

Entry CCCC[C@@H](O)C1=C(COc2ccccc2)C[C@H]2C(=O)N(Cc3ccccc3)C(=O)[C@H]2[C@H]1CO : call = ?
inactive

Entry O=C(NCc1ccc(F)cc1)[C@H]1C[C@H]2C(=O)NCC(=O)N2[C@H]1c1ccc(O)cc1 : call = ?
inactive

Entry COc1cc2c(cc1O)C=[N+](Cc1sc3ccccc3c1Cl)CC2 : call = ?
active

Entry O=C1OCCC=C[C@H]2OC34C=CCN(c5ccc6ccccc6c5)C(=O)[C@H]3N(CCCO)C(=O)[C@@H]4C12 (stereo not given in full) : call = ?
inactive

Entry CN(C)C(=O)[C@]1(CCC(=O)OC(C)(C)C)N=C(c2ccc(OCCCO)cc2)O[C@@H]1c1ccccc1CN=[N+]=[N-] : call = ?
inactive

Entry CCCC=C(CCC)[C@@H](NC(=O)C(C)(C)C)c1ccc(C(=O)OC)cc1 : call = ?
inactive

Entry CCCC=C(CCC)[C@@H](NC(=O)c1cccs1)c1ccc(C(=O)OC)cc1 : call = ?
inactive

Entry CCOC(=O)C[C@H]1[C@H](OC(=O)Cc2ccc3c(c2)OCO3)[C@@H](NC(=O)C2CCCCC2)c2cc(OCCCO)ccc2N1C(=O)c1ccccc1 : call = ?
inactive

Entry COC(=O)[C@@]1(Cc2ccc(OC)cc2)[C@H]2c3cc(C(=O)N4CCCC4)n(CCc4c[nH]c5ccc(O)cc45)c3C[C@H]2CN1C(=O)c1ccccc1 : call = ?
inactive

Entry CC(C)=C1C(=O)C(c2ccccc2)=C2CN3C(=O)N(CCc4ccccc4)C(=O)[C@]3(Cc3ccc(C(F)(F)F)cc3)[C@H]21 : call = ?
inactive

Entry CCOC(=O)C1=C[C@@H](C(C)(C)C)N(S(=O)(=O)c2ccc(C)cc2)[C@H]1c1cccc2ccccc12 : call = ?
inactive

Entry CCCC[C@@H]1C[C@H]1[C@@H](NC(=O)c1cccs1)c1ccccc1C(F)(F)F : call = ?
inactive

Entry CCCCC[C@H]1OC[C@@]23C=C(Br)[C@@H](CC12)[C@@]1(CO1)C3=O (stereo not given in full) : call = ?
inactive
